Assay remarks: Biodistribution study (SPECT/CT) in HT-29 tumor-bearing mice
Assay type: in vivo, NMRI nude mice
Condition parameters: female, NMRI nude, mouse, in vivo, iv, total radioactivity, Peak Kidney uptake
Recorded metric: tissue uptake (%ID/g)

mol_smiles=CC(C)C[C@@H]1NC(=O)[C@H](Cc2ccc(NC(=O)CCS(N)(=O)=O)cc2)NC(=O)[C@H](CC(=O)O)NC(=O)[C@H]2CCCN2C(=O)[C@H](CCC(=O)O)NC(=O)[C@@H](NC(=O)[C@H](CCC(N)=O)NC(=O)CN2CCN(CC(=O)O)CCN(CC(=O)O)CCN(CC(=O)O)CC2)CSCc2cccc(c2)CSC[C@@H](C(N)=O)NC(=O)[C@H](CO)NC(=O)[C@H](Cc2c[nH]c3ccccc23)NC(=O)[C@H]([C@@H](C)O)NC1=O recorded_metric="tissue uptake" value_measured=5.61

----------
Assay remarks: Pharmacokinetic characterization in healthy mice
Assay type: in vivo, CD-1 mice
Condition parameters: male, CD-1, plasma, iv; mouse, i.v. 0.7 mg/kg; read-out: terminal elimination half-life (converted)
Recorded metric: half-life (min)

molecule="CC(C)C[C@@H]1NC(=O)[C@H](Cc2cccc(NC(=O)CCCS(N)(=O)=O)c2)NC(=O)[C@H](CC(=O)O)NC(=O)[C@H]2CCCN2C(=O)[C@H](CCC(=O)O)NC(=O)[C@@H](NC(=O)[C@H](CCC(N)=O)NC(=O)CN2CCN(C(=O)CN3CCN(CC(=O)O)CCN(CC(=O)O)CCN(CC(=O)O)CC3)CC2)CSCc2cccc(c2)CSC[C@@H](C(N)=O)NC(=O)[C@H](CO)NC(=O)[C@H](Cc2c[nH]c3ccccc23)NC(=O)[C@H]([C@@H](C)O)NC1=O [DPI-4452]" unit_of_measurement=min value_measured=16.8

----------
Assay remarks: Extended single-dose toxicity study including safety pharmacology endpoints, i.v. bolus (GLP)
Format: in vivo, beagle dogs
Condition parameters: beagle, dog, plasma, iv, 16 ug/kg; Female; 16 μg/kg single i.v. bolus; mean n = 3; read-out: C5 min
Recorded metric: level at 5 min (ng/mL)

mol_smiles=CC(C)C[C@@H]1NC(=O)[C@H](Cc2cccc(NC(=O)CCCS(N)(=O)=O)c2)NC(=O)[C@H](CC(=O)O)NC(=O)[C@H]2CCCN2C(=O)[C@H](CCC(=O)O)NC(=O)[C@@H](NC(=O)[C@H](CCC(N)=O)NC(=O)CN2CCN(C(=O)CN3CCN(CC(=O)O)CCN(CC(=O)O)CCN(CC(=O)O)CC3)CC2)CSCc2cccc(c2)CSC[C@@H](C(N)=O)NC(=O)[C@H](CO)NC(=O)[C@H](Cc2c[nH]c3ccccc23)NC(=O)[C@H]([C@@H](C)O)NC1=O unit_of_measurement=ng/mL value_measured=37.7

----------
Assay remarks: Pharmacokinetic characterization in healthy mice
Assay type: in vivo, CD-1 mice
Condition parameters: male, CD-1, plasma, iv; mouse, i.v. 5.5 mg/kg; read-out: Clearance (CL)
Protocol: The pharmacokinetics of DPI-4452 after a single intravenous (i.v.) dose were investigated in healthy mice. […] Plasma and urine samples collected after dosing were analyzed using a LC-HRMS (liquid chromatography coupled with high-resolution mass spectrometry) assay method. […] Plasma and urine samples were analyzed by LC-HRMS after solid phase extraction, using a stable isotope-labeled internal standard (^13C6, ^15N-DPI-4452). […] The lower limit of quantification was 1.00 ng/mL in plasma and urine. […]
Recorded metric: clearance (mL/min/kg)

compound="CC(C)C[C@@H]1NC(=O)[C@H](Cc2cccc(NC(=O)CCCS(N)(=O)=O)c2)NC(=O)[C@H](CC(=O)O)NC(=O)[C@H]2CCCN2C(=O)[C@H](CCC(=O)O)NC(=O)[C@@H](NC(=O)[C@H](CCC(N)=O)NC(=O)CN2CCN(C(=O)CN3CCN(CC(=O)O)CCN(CC(=O)O)CCN(CC(=O)O)CC3)CC2)CSCc2cccc(c2)CSC[C@@H](C(N)=O)NC(=O)[C@H](CO)NC(=O)[C@H](Cc2c[nH]c3ccccc23)NC(=O)[C@H]([C@@H](C)O)NC1=O [DPI-4452]" recorded_metric=clearance value_measured=32.5

----------
Experimental system: CAIX-expressing human HT-29 colorectal cancer cells (Homo sapiens)
Construct: CAIX-expressing human HT-29 colorectal cancer cells; host or cells: HT-29 human colorectal cancer cells
Assay remarks: FACS binding assay (IC50 determination, competition with tracer 3BP-2776 or 3BP-4149)
Condition parameters: FACS competition on HT-29 cells, Tracer ID 3BP-2776 (10 nM, biotin-labeled), 4° C., 1 hour; read-out: pIC50 category (activity) (converted)
Starred links: 1 amine or outer side, 2 acyl side, 3 side chain; linkers in the order of their positions; H or OH if unused. Positions of bridges follow the written chain, without caps; N, C: chain ends. Non-standard residues stand in square brackets, D forms with d. Residues, ends and D or L forms follow the SMILES beside them. *: point of attachment. DOTA = O=C(O)CN1CCN(CC(=O)O)CCN(CC(=O)*)CCN(CC(=O)O)CC1; Trp(5-Cl) = N[C@@H](Cc1c[nH]c2ccc(Cl)cc12)C(=O)O; mXylylene = c1cc(C[*:1])cc(C[*:2])c1; NMeY = CN[C@@H](Cc1ccc(O)cc1)C(=O)O; X2 = O=C(CN1CCC(N[*:1])CC1)[*:2]; tBuAla = CC(C)(C)C[C@H](N)C(=O)O; Pen = CC(C)(S)[C@H](N)C(=O)O; Sar = CNCC(=O)O
Reported IC50 values are given for each entry in this list.
Recorded metric: IC50

molecule="CC(=O)N[C@H](C(=O)N[C@@H](Cc1ccc(O)cc1)C(=O)N[C@H]1CSCc2cccc(c2)CSC[C@@H](C(N)=O)NC(=O)[C@H](CCC(N)=O)NC(=O)[C@H](Cc2c[nH]c3ccccc23)NC(=O)[C@H]([C@@H](C)O)NC(=O)[C@H](CC(C)C)NC(=O)[C@H](Cc2c[nH]c3ccccc23)NC(=O)[C@H](CC(=O)O)NC(=O)CN(C)C(=O)[C@H](CCC(=O)O)NC1=O)C(C)C [3BP-3060] (Ac-VYCE[Sar]DWLTWQC-NH2; linker 3-12 via mXylylene)" value_measured="< 10 nM"
molecule="CC(=O)N[C@H](C(=O)N[C@@H](Cc1ccc(O)cc1)C(=O)N[C@H]1CSCc2cccc(c2)CSC[C@@H](C(N)=O)NC(=O)[C@H](CCC(N)=O)NC(=O)[C@H](Cc2c[nH]c3ccccc23)NC(=O)[C@@H](C)NC(=O)[C@H](CC(C)C)NC(=O)[C@H](Cc2c[nH]c3ccccc23)NC(=O)[C@H](CC(=O)O)NC(=O)CN(C)C(=O)[C@H](CCC(=O)O)NC1=O)C(C)C [3BP-3309] (Ac-VYCE[Sar]DWL[dA]WQC-NH2; linker 3-12 via mXylylene)" value_measured="100 to 794 nM"
molecule="CC(C)C[C@@H]1NC(=O)[C@H](Cc2c[nH]c3ccccc23)NC(=O)[C@H](CC(=O)O)NC(=O)[C@H]2CCCN2C(=O)[C@H](CCC(=O)O)NC(=O)[C@@H](NC(=O)[C@H](Cc2ccc(O)cc2)NC(=O)[C@@H](NC(=O)CN2CCC(NC(=O)CN3CCN(CC(=O)O)CCN(CC(=O)O)CCN(CC(=O)O)CC3)CC2)C(C)C)CSCc2cccc(c2)CSC[C@@H](C(N)=O)NC(=O)[C@H](CO)NC(=O)[C@H](Cc2c[nH]c3ccccc23)NC(=O)[C@H](Cc2c[nH]cn2)NC1=O [3BP-3597] ({DOTA}-[X2]VYCE[dP]DWLHWSC-NH2; linker 4-13 via mXylylene)" value_measured="< 10 nM"
molecule="CC(=O)N[C@H](C(=O)N(C)[C@@H](Cc1ccc(O)cc1)C(=O)N[C@H]1CSCc2cccc(c2)CSC[C@@H](C(N)=O)NC(=O)[C@H](CO)NC(=O)[C@H](Cc2c[nH]c3ccccc23)NC(=O)[C@H]([C@@H](C)O)NC(=O)[C@H](CC(C)C)NC(=O)[C@H](Cc2c[nH]c3ccccc23)NC(=O)[C@H](CC(=O)O)NC(=O)[C@H]2CCCN2C(=O)[C@H](CCC(=O)O)NC1=O)C(C)C [3BP-3589] (Ac-V[NMeY]CE[dP]DWLTWSC-NH2; linker 3-12 via mXylylene)" value_measured="< 10 nM"
molecule="CC(=O)N[C@H](C(=O)N[C@@H](CO)C(=O)N[C@H]1CSCc2cccc(c2)CSC[C@@H](C(N)=O)NC(=O)[C@H](CO)NC(=O)[C@H](Cc2c[nH]c3ccccc23)NC(=O)[C@H]([C@@H](C)O)NC(=O)[C@H](CC(C)C)NC(=O)[C@H](Cc2c[nH]c3ccccc23)NC(=O)[C@H](CC(=O)O)NC(=O)[C@H]2CCCN2C(=O)[C@H](CCC(=O)O)NC1=O)C(C)C [3BP-3571] (Ac-VSCE[dP]DWLTWSC-NH2; linker 3-12 via mXylylene)" value_measured="< 10 nM"
molecule="CC(=O)N[C@H](C(=O)N[C@@H](Cc1ccc(O)cc1)C(=O)N[C@H]1CSCc2cccc(c2)CSC[C@@H](C(N)=O)NC(=O)[C@H](CCC(N)=O)NC(=O)[C@H](Cc2c[nH]c3ccc(Cl)cc23)NC(=O)[C@H]([C@@H](C)O)NC(=O)[C@H](CC(C)C)NC(=O)[C@H](Cc2c[nH]c3ccccc23)NC(=O)[C@H](CC(=O)O)NC(=O)CN(C)C(=O)[C@H](CCC(=O)O)NC1=O)C(C)C [3BP-3312] (Ac-VYCE[Sar]DWLT[Trp(5-Cl)]QC-NH2; linker 3-12 via mXylylene)" value_measured="100 to 794 nM"
molecule="CC(=O)N[C@H](C(=O)N[C@@H](Cc1ccc(O)cc1)C(=O)N[C@H]1CSCc2cccc(c2)CSC(C)(C)[C@@H](C(N)=O)NC(=O)[C@H](C)NC(=O)[C@H](Cc2c[nH]c3ccccc23)NC(=O)[C@H]([C@@H](C)O)NC(=O)[C@H](CC(C)(C)C)NC(=O)[C@H](Cc2c[nH]c3ccccc23)NC(=O)[C@H](CC(=O)O)NC(=O)[C@H]2CCCN2C(=O)[C@H](CCC(=O)O)NC1=O)C(C)C [3BP-3493] (Ac-VYCE[dP]DW[tBuAla]TWA[Pen]-NH2; linker 3-12 via mXylylene)" value_measured="< 10 nM"
molecule="CC(=O)N[C@H](C(=O)N[C@@H](Cc1ccc(O)cc1)C(=O)N[C@H]1CSCc2cccc(c2)CSC[C@@H](C(N)=O)NC(=O)[C@H](CCC(N)=O)NC(=O)[C@H](Cc2c[nH]c3ccccc23)NC(=O)CNC(=O)[C@H](CC(C)C)NC(=O)[C@H](Cc2c[nH]c3ccccc23)NC(=O)[C@H](CC(=O)O)NC(=O)CN(C)C(=O)[C@H](CCC(=O)O)NC1=O)C(C)C [3BP-3307] (Ac-VYCE[Sar]DWLGWQC-NH2; linker 3-12 via mXylylene)" value_measured="< 10 nM"
molecule="CC(=O)N[C@H](C(=O)N[C@@H](Cc1ccc(O)cc1)C(=O)N[C@H]1CSCc2cccc(c2)CSC[C@@H](C(N)=O)NC(=O)[C@H](CO)NC(=O)[C@H](Cc2c[nH]c3ccccc23)NC(=O)[C@H]2CCC(=O)NCCCC[C@H](NC(=O)[C@H]3CCCN3C(=O)[C@H](CCC(=O)O)NC1=O)C(=O)N[C@@H](Cc1c[nH]c3ccccc13)C(=O)N[C@@H](CC(C)C)C(=O)N2)C(C)C [3BP-3957] (Ac-VYCE[dP]KWL[dE]WSC-NH2; linker 3-12 via mXylylene; lactam 6-9)" value_measured="< 10 nM"
